Just for reference, paper PMC4086519 is where these values come from.

system: Trichophyton mentagrophytes; test: Minimum fungicide concentration (MFC); format: cell-based; conditions: Tm3, T. mentagrophytes ATCC 40131

[
  {
    "compound": "CCCCCCCCOC(=O)c1ccc(O)c(O)c1 [Protocatechuate octyl, octyl protocatechuate]",
    "assaySystem": "Trichophyton mentagrophytes",
    "valueQualifier": "=",
    "MFC / µg/mL": 3.9
  },
  {
    "compound": "CCCCCCCCCCOC(=O)c1ccc(O)c(O)c1 [Protocatechuate decyl]",
    "assaySystem": "Trichophyton mentagrophytes",
    "valueQualifier": "=",
    "MFC / µg/mL": 15.6
  },
  {
    "compound": "CCCCCCCCCCCCCCOC(=O)c1ccc(O)c(O)c1 [Protocatechuate tetradecyl]",
    "assaySystem": "Trichophyton mentagrophytes",
    "valueQualifier": ">",
    "MFC / µg/mL": 250
  },
  {
    "compound": "CCCCCCCCCCCCCCCCOC(=O)c1ccc(O)c(O)c1 [Protocatechuate hexadecyl]",
    "assaySystem": "Trichophyton mentagrophytes",
    "valueQualifier": ">",
    "MFC / µg/mL": 250
  },
  {
    "compound": "CCCCCCOC(=O)c1ccc(O)c(O)c1 [Protocatechuate hexyl, hexyl protocatechuate]",
    "assaySystem": "Trichophyton mentagrophytes",
    "valueQualifier": "=",
    "MFC / µg/mL": 7.80
  },
  {
    "compound": "CCCCCCCCCOC(=O)c1ccc(O)c(O)c1 [Protocatechuate nonyl, nonyl protocatechuate]",
    "assaySystem": "Trichophyton mentagrophytes",
    "valueQualifier": "=",
    "MFC / µg/mL": 3.9
  },
  {
    "compound": "CCCCCCCCCCCCOC(=O)c1ccc(O)c(O)c1 [Protocatechuate dodecyl]",
    "assaySystem": "Trichophyton mentagrophytes",
    "valueQualifier": "=",
    "MFC / µg/mL": 62.5
  },
  {
    "compound": "CCCOC(=O)c1ccc(O)c(O)c1 [Protocatechuate propyl]",
    "assaySystem": "Trichophyton mentagrophytes",
    "valueQualifier": "=",
    "MFC / µg/mL": 31.2
  },
  {
    "compound": "CCCCCOC(=O)c1ccc(O)c(O)c1 [Protocatechuate pentyl, pentyl protocatechuate]",
    "assaySystem": "Trichophyton mentagrophytes",
    "valueQualifier": "=",
    "MFC / µg/mL": 7.8
  },
  {
    "compound": "COC(=O)c1ccc(O)c(O)c1 [Protocatechuate methyl]",
    "assaySystem": "Trichophyton mentagrophytes",
    "valueQualifier": "=",
    "MFC / µg/mL": 62.5
  },
  {
    "compound": "CCCCCCCCCCCCCCCCCCOC(=O)c1ccc(O)c(O)c1 [Protocatechuate octadecyl]",
    "assaySystem": "Trichophyton mentagrophytes",
    "valueQualifier": ">",
    "MFC / µg/mL": 250
  },
  {
    "compound": "CCCCCCCOC(=O)c1ccc(O)c(O)c1 [Protocatechuate heptyl, protocatechuate heptyl]",
    "assaySystem": "Trichophyton mentagrophytes",
    "valueQualifier": "=",
    "MFC / µg/mL": 3.9
  },
  {
    "compound": "CCCCOC(=O)c1ccc(O)c(O)c1 [Protocatechuate butyl]",
    "assaySystem": "Trichophyton mentagrophytes",
    "valueQualifier": "=",
    "MFC / µg/mL": 15.6
  },
  {
    "compound": "CCOC(=O)c1ccc(O)c(O)c1 [Protocatechuate ethyl]",
    "assaySystem": "Trichophyton mentagrophytes",
    "valueQualifier": "=",
    "MFC / µg/mL": 125
  }
]
